Test: label from the status in PepcDB records
Recorded Endpoint: protein production

Param item = `HALQAGRLGSTVFVANLDYKVGWKKLKEVFSMAGVVVRADILEDKDGKSRGIGTVTFEQSIEAVQAISMFNGQLLFDRPMHVKMDERALPKGDFFPPERPQQ` ; retrieve measured protein production.
failed

What does the data say about its protein production? Entry: `MINYPNLPNSALEITEQPEVKEITNELLKQLQNALNSNSLFSEQVELSLKGIVRILEVLLSLDFFKNANEIDSSLRNSIEWLNNAGESLKTKMKEYEGFFSDFNTSMRTNEQEVSATLNANTENIKSEIKKLENQLIETTTRLLTSYQIFLNNARDSANNQITANKTESLEALNQAKTSANNEITANQTQALTNINEAKENANNQITENKTQAITNINEARESATTQITTNKQEVLNSITQEKNQATSEITEAKKSAFNELLETLKPKFSGLFAGAYYIRNVIIFKADGRRKSRI`
failed

Look at this sequence and give its reported protein production. `MVTSEGLASVDSWLYRQGFNVDSWLLSDTFSHDNDLLARALHTTVTAPHTLTPSSAFFDSSAVSHPSSTNTLSSTVSGASDPEIIGGGAKRKRNCLLTDGKAAKRRARASKKSQTTFITADPSNFRQMVQQVTGAKYIDDSSSFGIFDPIVKPEPLRFVNKLPCGPSDRSTAVPMLDTSAFLSNHHQENLAVGNAFSGNSSSVGLPSGKPSATADPGGSAVEFDNYPTFPTLESWKVM`
failed
